# System: Escherichia coli TOP10;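 note: peptides expressed intracellularly from a pBAD plasmid library in pooled LB shake-flask culture, induced with 0.3% L-arabinose, DNA abundance read by NGS, three biological replicates, DESeq2 with apeglm shrinkage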
# procedureDetails: shrunken log2 fold change of peptide-encoding DNA abundance (4.5 h post-induction vs induction); higher = less antimicrobial activity (less host growth inhibition)
# settings: time post-induction: 4.5 h; library: site-saturation at positions 5, 18, 19, 20
Give measured shrunken log2 fold change for each item. Keep answers brief.
Give bare numbers.

// worked examples, shrunken log2 fold change included
> print(dat)
              sequencetext  reading
1  RRIRDRPPRLPRPRPRPSTDPRP   0.0145
2  RRIRTRPPRLPRPRPRPAQTPRP    0.712
3  RRIRERPPRLPRPRPRPMRWPRP    0.472
4  RRIRIRPPRLPRPRPRPGAFPRP   -0.294
5  RRIRQRPPRLPRPRPRPGPWPRP    0.479

For the 5 sequences below, give their shrunken log2 fold change values.
1. RRIRHRPPRLPRPRPRPRMHPRP
2. RRIRLRPPRLPRPRPRPMAGPRP
3. RRIRIRPPRLPRPRPRPPHDPRP
4. RRIRQRPPRLPRPRPRPNVKPRP
5. RRIRQRPPRLPRPRPRPLTVPRP

Reply text:
1. -0.0289
2. 0.208
3. -0.0948
4. 0.0117
5. 0.0325

For the 2 sequences below, give their shrunken log2 fold change values.
1. RRIRRRPPRLPRPRPRPKQPPRP
2. RRIRQRPPRLPRPRPRPALAPRP

Reply text:
1: 0.0672; 2: 0.73

For the 3 sequences below, give their shrunken log2 fold change values.
1. RRIRERPPRLPRPRPRPFKNPRP
2. RRIRQRPPRLPRPRPRPPPLPRP
3. RRIRCRPPRLPRPRPRPFAYPRP

Reply text:
-0.174
0.977
0.00718
